Data origin: patent US20180016327A1

target: T1, human C5 (human, UniProt P01031 19-673; P01031 678-1676, Beta and alpha chains are disulfide-linked and the protein is glycosylated.)
T1 construct: Either in-house recombinant C5 or plasma derived C5 (CALBIOCHEM) was used; also called recombinant human C5; plasma derived human C5
test description: Biacore, captured antibody, pH 7.4, 37 C;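 further: biacore binding response of anti-C5 antibody light chain variants captured on chip with human C5 injected, ACES running buffer containing 1.2 mM CaCl₂, parent light chain antibody set to 100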
result type: % binding (parent = 100) (%)
Answer in %, number only, no unit symbol.

Study these solved cases before continuing.
CFP0015 15L 30S (antibody, V domains shown) VH: QVQLLESGGGLVQPGGSLRLSCAASGFTFSSYAMSWVRQAPGKGLEWVSAISGSGGSTYYADSVKGRFTISRDNSKNTLYLQMNSLRAEDTAVYYCARGDQIWYDQWYYFDMWGQGTLVTVSS VL: DIQMTQSPSSLSASVGDRVTITCRASQSISDDLAWYQQKPGKAPKLLIYEASNLQSGVPSRFSGSGSGTDFTLTISSLQPEDFATYYCQQYDSSPLTFGQGTKVEIK ... 23.1
CFP0018 18L 96P (antibody, V domains shown) VH: QVQLVQSGAEVKKPGSSVKVSCKASGGTFSSYAISWVRQAPGQGLEWMGGIIPIFGTANYAQKFQGRVTITADESTSTAYMELSSLRSEDTAVYYCARQLYGYYELDIWGQGTLVTVSS VL: DIQMTQSPSSLSASVGDRVTITCRASQSISDDLAWYQQKPGKAPKLLIYEASSLQSGVPSRFSGSGSGTDFTLTISSLQPEDFATYYCQQYNSYPPTFGQGTKVEIK ... 18
CFP0015 15L 30Y (antibody, V domains shown) VH: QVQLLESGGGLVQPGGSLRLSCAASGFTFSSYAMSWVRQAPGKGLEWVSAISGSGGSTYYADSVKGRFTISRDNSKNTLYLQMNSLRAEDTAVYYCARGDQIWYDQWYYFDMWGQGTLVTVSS VL: DIQMTQSPSSLSASVGDRVTITCRASQSIYDDLAWYQQKPGKAPKLLIYEASNLQSGVPSRFSGSGSGTDFTLTISSLQPEDFATYYCQQYDSSPLTFGQGTKVEIK ... 51.3

Record CFP0011 11L 91H (antibody, V domains shown) VH: QVQLVQSGAEVKKPGSSVKVSCKASGGTFSSYAISWVRQAPGQGLEWMGGIIPIFGTANYAQKFQGRVTITADESTSTAYMELSSLRSEDTAVYYCARDMSEFLGWSNYYSYPMDVWGQGTTVTVSS VL: DIQMTQSPSSLSASVGDRVTITCRASQSIEDDLAWYQQKPGKAPKLLIYHASSLQSGVPSRFSGSGSGTDFTLTISSLQPEDFATYYCQQHDNSPYTFGQGTKVEIK . Reported % binding (parent = 100): 320

Entry CFP0015 15L 53H (antibody, V domains shown) VH: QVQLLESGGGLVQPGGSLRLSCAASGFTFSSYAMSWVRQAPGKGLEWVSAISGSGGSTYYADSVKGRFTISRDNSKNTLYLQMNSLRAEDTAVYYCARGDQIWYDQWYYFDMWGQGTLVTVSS VL: DIQMTQSPSSLSASVGDRVTITCRASQSIEDDLAWYQQKPGKAPKLLIYEASHLQSGVPSRFSGSGSGTDFTLTISSLQPEDFATYYCQQYDSSPLTFGQGTKVEIK — recorded % binding (parent = 100) = 80.8
